- Test system: MS2 coat protein
- TEST DESCRIPTION: apparent Kd, MS2 coat protein; higher = weaker binding; RNA-MaP array; tryptophan 2.4 mM where present
- MEASUREMENT CONTEXT: designed as: OFF switch for tryptophan; no ligand
PROPERTY: apparent Kd (nM)
// return numeric value only (unit: nM, not printed)

Example cases with answers are listed next.
[[record]]
seq_text = "GAUCGAAAUAACGUCUAGGAAAACUAGACGCGAGGACCGGUACGGCCGCCACUCGGGUGGCACAUGAGGAUCACCCAUGUAGAUC"
test_value = 78.7

[[record]]
seq_text = "ACAUGAGCAUCAGCCAUGUGUAUGACAUGACGAGGACCGGUACGGCCGCCACUCGACAUGAGGAUCACCCAUGUUGAGGAUCACA"
test_value = 10.9

[[record]]
seq_text = "AAUGUAUUCCACAUGAGGAUCACCCAUGUGCGAGGACCGGUACGGCCGCCACUCGGUGUUGGGAUCUGUUCUGAAUACAUUAAUG"
test_value = 29


The recorded apparent Kd for GGAUAGGACACGGCCGCCACUGCGCUAGGAUACUAGAACAUUUCCUCACAUGAGGAUCACCCAUGUAGGACCGGGUGUCCUAUCG is 49.6

The recorded apparent Kd for AUAACGAGUGGUGGAUAAUCCUCAUGUAAACGAGGACCGGUACGGCCGCCACUCGAUAACAUGAGGAUCACCCAUGUAAUAAUAA is 13.2

The recorded apparent Kd for GUAGCGACGGCGGCCGCCACUCACAGGUGAGGGUAGACCAACCUUCACAUGAGGAUCACCCAUGUGAGGACCGGGCUGUCGCUAC is 90.9

The recorded apparent Kd for UCUGCCGCGGCUCCGAUCCUCCUGUAGUUCCGAGGACCGGUACGGCCGCCACUCGUAGCACAUGAGGAUCACCCAUGUCUUGCGG is 9.45

---

# key: entry, value: apparent Kd
- System: MS2 coat protein
- TEST DESCRIPTION: apparent Kd, MS2 coat protein; higher = weaker binding; RNA-MaP array; tryptophan 2.4 mM where present
- MEASUREMENT CONTEXT: ligand present: tryptophan; designed as: ON switch for tryptophan
// return numeric value only (unit: nM, not printed)

The recorded apparent Kd for AUACAUGAGGAUCACCCAUGUGAUGGCCGGCGAGGACCGGUACGGCCGCCACUCGUGAUCCGUCCUGAGAGCAAAGCCCUCAGCA is 171

The recorded apparent Kd for ACACCAUACAUGAGGAUCACCCAUGUUACACGAGGACCGGUACGGCCGCCACUCGAAUUCAGGAAACCUCGGAUAAUAUUGUGAA is 33.2

---

- Tested on: MS2 coat protein
- TEST DESCRIPTION: apparent Kd, MS2 coat protein; higher = weaker binding; RNA-MaP array; FMN 200 µM where present
- MEASUREMENT CONTEXT: designed as: ON switch for flavin mononucleotide; no ligand
Please note: Met applies when apparent Kd is 60 nM or greater, and Not met applies otherwise.

Previously resolved entries follow.
[[record]]
seq_text = "AAGAAACAUGAGGAUCACCCAUGUCACCUCACACGAGGAUAUCUGAAUCGAUUAGAUUACGGAGAAGGCGUGAGAA"
classification = "Not met"

[[record]]
seq_text = "GCCAUCGUAUGAGGAUAUGGCACCGAAACGGUGCCAGAAGGCAUGUCAAUCGACAUGAGGAUCACCCAUGUGUUAUCGAUGGCA"
classification = "Met"

[[record]]
seq_text = "GUGAGAAUAGGAGGAUAUAUACAACAUGAGGAUCACCCAUGUACCCGUGUAGUAGAAGGUUUGUUUAUAUAUAAUAUUAUAUUU"
classification = "Not met"

[[record]]
seq_text = "GUAUCAUACCAAGGAUAUUUAGGACUUGUGUAGACAUGAGGAUCACCCAUGUGGCGUUAGUCACGGGAGAAGGUGGUAUGAUAC"
classification = "Met"

[[record]]
seq_text = "UACAAUCUAUCUGAGGAUAUCAUGAAAAAAACAUGAGGAUCACCCAUGUGCAGGAAAACUGCAUAUGAGAAGGCAGAUAGAUUGU"
classification = "Met"


q: Determine whether this sequence has apparent Kd no lower than 60 nM: UUAUUUAUGUAAGGAUAUCGAUGAUAUACGCAUCCGACAUGAGGAUCACCCAUGUUUUAUUUUGUCGAGAAGGUACAUUGUCGG
a: Not met

q: Determine whether this sequence has apparent Kd no lower than 60 nM: UUGGCAUCGUAGAAGGGUGACAUGAGGAUCACCCAUGUGAUGAUAUUUCUCGAGAUAUGUUGUCCAUAGGAUAUACGAGCGAAC
a: Met

q: Determine whether this sequence has apparent Kd no lower than 60 nM: GUAGUACAUGAGGAUCACCCAUGUGUGGGCGCAUGAGGAUAUGUCCGUACCUGGCGUACGAUAGAAGGCAUGGUGC
a: Not met

q: Determine whether this sequence has apparent Kd no lower than 60 nM: UACGACUUCGUAGGAUAUGUAUUUCAUUUCUACAUGAGGAUCACCCAUGUUUGCAUUUUUUUUUGACAGAAGGACGUAAUCGUA
a: Not met

q: Determine whether this sequence has apparent Kd no lower than 60 nM: GGGUAAAUCGGAGGAUAUCAUGUAAAUACAUGAGGAUCACCCAUGUCGAUGGAGACAUCGGAGAUUGAGAAGGCCGAUGUACCG
a: Met

q: Determine whether this sequence has apparent Kd no lower than 60 nM: GUGCUCGUGUGAGGAUAUGCUGCCGGGUCGGCUGCAGAAGGUACUAUUAUACAUGAGGAUCACCCAUGUCGCUUUUCUCCGGUG
a: Not met

q: Determine whether this sequence has apparent Kd no lower than 60 nM: UUACAUACAAAGGUACAUGAGGAUCACCCAUGUUUGUUGGGAAGAAGGGUAACAAUACUACACAUACAGGAUAUUUCACAAAUA
a: Not met

q: Determine whether this sequence has apparent Kd no lower than 60 nM: AGUAAGAUGCAGAAGGUGUUAGCUAGAGCUACGACAUGAGGAUCACCCAUGUACUAAAACCCGUACAAGGAUAUGCAUCUUACA
a: Not met

q: Determine whether this sequence has apparent Kd no lower than 60 nM: GUAUAUAUAUAAGGAUAUAAGUCUAGGACAUGAGGAUCACCCAUGUGUGUCUUAGAAGGUAUAUAUGUAAUACUGUUACAGUAA
a: Met
